test: chemical genetic growth profiling, strain panel (AID 1159580);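 also: tested at 20 µM; growth read once vehicle control cultures reached saturation at 30 °C; 1 = growth at the plate median or of vehicle wells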; conditions: S. cerevisiae deletion strains, growth OD, locus YIR030C, strain dcg1, stronger effect = lower value
About 2,000 (36%) of roughly 5,500 compounds were called active. Inconclusive results (about 18%) are left out. The list shows a part of the results.
Catalogue of molecules with associated normalized growth
Respond numerically, and do not add a unit to the figure.

| Smiles Repr | normalized growth |
| --- | --- |
| COc1ccc(-c2coc3c(OC)c(OC)ccc3c2=O)cc1 | 0.998 |
| COC(=O)[C@H]1[C@H]2C[C@H]3c4[nH]c5ccccc5c4CCN3C[C@H]2CC[C@@H]1O | 0.999 |
| COc1ccc(C(=O)c2ccccc2O)c(O)c1 | 0.918 |
| O=C(O)COc1cc(Cl)c(Cl)cc1Cl | 1.02 |
| COc1ccc(-c2coc3c(OC)c(OC)cc(O)c3c2=O)cc1 | 0.961 |

**Query** Value lookup for normalized growth; key = CCC1(c2ccccc2)C(=O)NCNC1=O
**Result** 0.997

**Query** Value lookup for normalized growth; key = CCc1nc(N)nc(N)c1-c1ccc(Cl)cc1
**Result** 1

====

Catalogue of molecules with associated normalized growth
test: chemical genetic growth profiling, strain panel (AID 1159580);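 also: tested at 20 µM; growth read once vehicle control cultures reached saturation at 30 °C; 1 = growth at the plate median or of vehicle wells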; settings: S. cerevisiae deletion strains, growth OD, locus YER155C, strain BEM2, stronger effect = lower value
Screen size: about 5,500 compounds; about 2,000 (36%) were called active. About 18% were inconclusive and are not listed. The list shows a part of the results.
Respond numerically, and do not add a unit to the figure.

| Molecule | Reported Result |
| --- | --- |
| CCc1nc(N)nc(N)c1-c1ccc(Cl)cc1 | 1.01 |
| Oc1c(Cl)c(Cl)c(Cl)c(Cl)c1Cl | 0.669 |
| CC(=O)OCC(CCn1cnc2cnc(N)nc21)COC(C)=O | 0.993 |
| Cc1c(N(C)C)c(=O)n(-c2ccccc2)n1C | 0.995 |
| OCC(O)Cc1ccc2c(c1)OCO2 (stereo not given) | 1.01 |

**Query** Value lookup for normalized growth; key = Oc1ccc(O)cc1
**Result** 1.02

**Query** Value lookup for normalized growth; key = C[N+](C)(C)CC(=O)[O-]
**Result** 0.996

**Query** Value lookup for normalized growth; key = Cc1ccc(O)cc1
**Result** 1.02

**Query** Value lookup for normalized growth; key = COc1ccc2c(c1)[C@@]1(C)CCC(=O)C[C@H]1CC2
**Result** 0.989

**Query** Value lookup for normalized growth; key = COc1c(CC=C(C)C)c2c(c3oc(=O)c(-c4ccc(O)cc4)c(O)c13)C=CC(C)(C)O2
**Result** 0.752

====

assay: chemical genetic growth profiling, strain panel (AID 1159580);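 also: tested at 20 µM; growth read once vehicle control cultures reached saturation at 30 °C; 1 = growth at the plate median or of vehicle wells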; conditions: S. cerevisiae deletion strains, growth OD, locus YML124C, strain tub3
About 2,000 (36%) of roughly 5,500 compounds were called active. Another 18% or so got no clear call; they are omitted. No stated cut-off is given here; in the data, active means normalized growth mostly below about 0.91 (no sharp cut-off); inconclusive means no clear call, values can overlap the other calls; inactive means mostly above about 0.92. The list shows a part of the results.
Pick one: active, inactive

| Compound | Group Label |
| --- | --- |
| CC(=O)O[C@H]1C(=O)[C@@]2(C)C([C@H](OC(=O)c3ccccc3)[C@]3(O)C[C@H](OC(=O)[C@H](O)[C@@H](NC(=O)c4ccccc4)c4ccccc4)C(C)=C1C3(C)C)[C@]1(OC(C)=O)CO[C@@H]1C[C@@H]2O (stereo partly specified) | active |

**Query** Tell me the assay call for CN1CCc2cc3c(cc2C1O)OCO3 (stereo unspecified) please.
**Result** inactive

**Query** Tell me the assay call for CC1(C)C2CC[C@]3(C)C(C(=O)C=C4[C@H]5C[C@@](C)(C(=O)O)CC[C@]5(C)CC[C@]43C)[C@@]2(C)CC[C@@H]1O (stereo partly specified) please.
**Result** inactive

**Query** Tell me the assay call for CC(C)[N+](C)(CCOC(=O)C1c2ccccc2Oc2ccccc21)C(C)C please.
**Result** inactive
